Molecular target: T1, T cell receptor (TCR) Vγ9 (TRGV9) (human, UniProt Q99603 21-122)
T1 sequence (looked up): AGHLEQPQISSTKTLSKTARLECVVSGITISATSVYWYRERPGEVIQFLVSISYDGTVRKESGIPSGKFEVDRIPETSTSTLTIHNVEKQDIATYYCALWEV
Assay: cell-based or functional assay
outcomeMeasure: Vg9 T cell %, flow staining
Number first, unit second.

VG9B54 (antibody, human IgG1, kappa, V domains shown) VH: EVQLVESGGGLVKPGGSLRLSCAASGFAFSSYSLTWVRQAPGKGLEWVSSISSSSSYIFYADSVKGRFTISRDNAKNSLYLQMNSLRAEDTAVYYCATDGELGPFDYWGQGTTVTVSS VL: EIVMTQSPGTLSLSPGERATLSCRASQSVSSSYLAWFQQKPGQAPRRLIYGASSRATGIPDRFSGSGSGTDFTLTISRLEPEDFAVYYCQQYGRSPLTFGGGTKVEIKR yielded Vg9 T cell %, flow staining of 10.5%
